System: Bovine cardiac myofibrils
Assay: In vitro model of dose-dependent myofibril ATPase modulation (AC1.4, pyruvate kinase/lactate dehydrogenase-coupled ATPase assay at pCa25)
Assay type: biochemical
Details: concentration at which ATPase activity was 1.4-fold higher than the bottom of the dose curve, mean of a minimum of two independent tests
property-label: AC1.4 (µM)

Fill blank: measured AC1.4 of the molecule "O=C(N[C@@H](c1cc(F)c(Cl)cc1F)C1COC1)[C@H]1C[C@@H](O)CN1C(=O)c1ccnc(C(F)F)c1" is ____.
2.3495

Fill blank: measured AC1.4 of the molecule "CN(C)S(=O)(=O)c1cccc(C(=O)N2CCC[C@@H]2C(=O)NCc2ccc(C(F)(F)F)cc2F)c1" is ____.
1.8995

Fill blank: measured AC1.4 of the molecule "CC(C)c1cc(C(=O)N2[C@@H](C(=O)N[C@@H](c3ccc(C(F)(F)F)cc3F)C3COC3)C[C@H]3C[C@H]32)ccn1" is ____.
7.314

I = C[C@@H](NC(=O)[C@H]1CCCN1C(=O)[C@H]1CCCN(S(=O)(=O)N2CC(C#N)C2)C1)c1ccc(F)c(F)c1
II = COc1ccc([C@H](NC(=O)[C@H]2CCCN2C(=O)[C@H]2CCCN(S(=O)(=O)N3CC(C#N)C3)C2)C(F)(F)F)cc1F
III = CC1(O)CN(S(=O)(=O)c2cccc(C(=O)N3CCC[C@@H]3C(=O)NCc3ccc(C(F)(F)F)cc3F)c2)C1
Arrange the 3 entries by AC1.4 so the values rise. Please write the labels in the order that was asked for.
I, III, II

====

Test system: Bovine cardiac myofibrils
Assay: In vitro model of dose-dependent myofibril ATPase modulation (AC1.4, pyruvate kinase/lactate dehydrogenase-coupled ATPase assay at pCa25)
Assay type: biochemical
Conditions: concentration at which ATPase activity was 1.4-fold higher than the bottom of the dose curve, mean of a minimum of two independent tests
Protocol: In vitro Model of Dose-Dependent Myofibril ATPase Modulation: Dose responses were measured using a calcium-buffered, pyruvate kinase and lactate dehydrogenase-coupled ATPase assay containing the following reagents (concentrations expressed are final assay concentrations): Potassium PIPES (12 mM), MgCl2 (2 mM), ATP (1 mM), DTT (1 mM), BSA (0.1 mg/mi), NADH (0.5 mM), PEP (1.5 mM), pyruvate kinase (4 U/ml), lactate dehydrogenase (8 U/ml), and antifoam (90 ppm). […]
property-label: AC1.4 (µM)

P = Cc1ccc(CNC(=O)[C@H]2CCCN2C(=O)c2cccc(S(=O)(=O)N3CC(C#N)C3)c2)cc1
Q = N#C[C@H]1CCN(S(=O)(=O)N2CCC[C@H](C(=O)N3CCC[C@@H]3C(=O)NCc3ccc(C(F)(F)F)cc3)C2)C1
Between P and Q , whose measured AC1.4 reads higher? Which one? Tell me its label.
Q
(Q: 0.3628 µM, P: 0.164 µM)

====

System: Bovine cardiac myofibrils
Assay: In vitro model of dose-dependent myofibril ATPase modulation (AC1.4, pyruvate kinase/lactate dehydrogenase-coupled ATPase assay at pCa25)
Assay type: biochemical
Settings: concentration at which ATPase activity was 1.4-fold higher than the bottom of the dose curve, mean of a minimum of two independent tests
property-label: AC1.4 (µM)

Use these answered entries as a reference point.
Fill blank: measured AC1.4 of the molecule "N#CC1CN(S(=O)(=O)N2CCN[C@H](C(=O)N3CCC[C@@H]3C(=O)NCc3ccc(Cl)cc3F)C2)C1" is ____.
0.7542

Fill blank: measured AC1.4 of the molecule "C#CC1(O)CN(S(=O)(=O)N2CCC[C@H](C(=O)N3CCC[C@@H]3C(=O)NCc3ccc(C(F)(F)F)cc3F)C2)C1" is ____.
0.3906

I = N#CC1CN(S(=O)(=O)N2CCC(F)=C(C(=O)N3CCC[C@@H]3C(=O)NCc3ccc(C(F)(F)F)cc3)C2)C1
II = N#CC1CN(S(=O)(=O)c2cccc(C(=O)N3CCC[C@@H]3C(=O)N[C@@H](CO)c3ccc(Cl)cc3)c2)C1
III = C[C@@H](NC(=O)[C@H]1CCCN1C(=O)[C@H]1CCCN(S(=O)(=O)N2CC(C#N)C2)C1)c1ccc(C#N)cc1
Sort by AC1.4, descending. Please write the labels in the order that was asked for.
III, II, I

====

System: Bovine cardiac myofibrils
Experiment: In vitro model of dose-dependent myofibril ATPase modulation (AC1.4, pyruvate kinase/lactate dehydrogenase-coupled ATPase assay at pCa25)
Format: biochemical
Conditions: concentration at which ATPase activity was 1.4-fold higher than the bottom of the dose curve, mean of a minimum of two independent tests
property-label: AC1.4 (µM)

P = O=C(N[C@@H](c1ccc(C(F)(F)F)cc1F)C1COC1)[C@H]1C[C@H]2C[C@H]2N1C(=O)c1cc(C(F)(F)F)ccn1
Q = N#CC1CN(S(=O)(=O)N2CCC[C@H](C(=O)N3CCC[C@@H]3C(=O)NCc3ccc(F)cc3C(F)(F)F)C2)C1
Between P and Q , whose measured AC1.4 reads higher? Which one? Tell me its label.
Q

A = COC[C@H](NC(=O)[C@H]1CCCN1C(=O)[C@H]1CCCN(S(=O)(=O)N2CC(C#N)C2)C1)c1cccc(C(F)(F)F)c1
B = CCNc1ccc(S(C)(=O)=O)cc1C(=O)N1CCC[C@@H]1C(=O)N[C@@H](c1ccc(C(F)(F)F)cc1F)C1CC1
C = N#CC1CN(S(=O)(=O)N2CCO[C@H](C(=O)N3CCC[C@@H]3C(=O)NCc3cc(F)cc(F)c3)C2)C1
Sort by AC1.4, descending. Please write the labels in the order that was asked for.
C, A, B

1 = C[C@H]1[C@@H](C(=O)N2CCC[C@@H]2C(=O)NCc2ccc(C(F)(F)F)cc2)CCCN1S(=O)(=O)N1CC(C#N)C1
2 = COC1CCN(S(=O)(=O)c2cccc(C(=O)N3CCC[C@@H]3C(=O)NCc3ccc(C(F)(F)F)cc3)c2)CC1
Between 1 and 2 , whose measured AC1.4 reads higher? Which one? Tell me its label.
2
(2: 2.036 µM, 1: 0.6874 µM)

====

Test system: Bovine cardiac myofibrils
Assay: In vitro model of dose-dependent myofibril ATPase modulation (AC1.4, pyruvate kinase/lactate dehydrogenase-coupled ATPase assay at pCa25)
Assay type: biochemical
Conditions: concentration at which ATPase activity was 1.4-fold higher than the bottom of the dose curve, mean of a minimum of two independent tests
property-label: AC1.4 (µM)

Fill blank: measured AC1.4 of the compound "N#Cc1cccc(C(=O)N2[C@@H](C(=O)N[C@@H](c3ccc(C(F)(F)F)cc3F)C3COC3)C[C@H]3C[C@H]32)c1" is ____.
1.1445

Fill blank: measured AC1.4 of the compound "O=C(NCc1ccc(C(F)(F)F)cc1)[C@H]1CCCN1C(=O)[C@H]1CCCN(S(=O)(=O)N2CC(Oc3ccncc3)C2)C1" is ____.
3.3545

Fill blank: measured AC1.4 of the compound "NS(=O)(=O)c1cccc(C(=O)N2[C@@H](C(=O)N[C@@H](c3cc(F)c(Cl)cc3F)C3CC3)C[C@H]3C[C@H]32)c1" is ____.
0.232

Fill blank: measured AC1.4 of the compound "O=C(N[C@@H](c1ccc(C(F)(F)F)cc1F)C1CC1)[C@H]1CCCN1C(=O)c1cccc(C2(F)COC2)c1" is ____.
3.2945

Fill blank: measured AC1.4 of the compound "O=C(NCc1ccc(C(F)(F)F)cc1)[C@H]1CCCN1C(=O)[C@H]1CCCN(S(=O)(=O)N2CC(O)(c3ccccc3)C2)C1" is ____.
1.216

Fill blank: measured AC1.4 of the compound "COc1ccc(CNC(=O)[C@H]2CCCN2C(=O)[C@H]2CCCN(S(=O)(=O)N3CC(C#N)C3)C2)cc1Cl" is ____.
3.476

I = CC(C)[C@@H](NC(=O)[C@H]1CCCN1C(=O)c1cccc(S(C)(=O)=O)c1)c1ccc(C(F)(F)F)cc1F
II = N#CC1CN(S(=O)(=O)c2cccc(C(=O)N3CC4(CC4)C[C@@H]3C(=O)NCc3ccc(C(F)(F)F)cc3)c2)C1
III = N#CC1CN(S(=O)(=O)N2CCO[C@H](C(=O)N3CCC[C@@H]3C(=O)NCc3ccc(C(F)(F)F)cc3)C2)C1
IV = C[C@@H](NC(=O)[C@H]1C[C@H]2C[C@H]2N1C(=O)c1cccc(S(C)(=O)=O)c1)c1cc(F)c(Cl)cc1F
Sort by AC1.4, descending. Please write the labels in the order that was asked for.
I, IV, III, II
(I: 4.609 µM, IV: 2.611 µM, III: 0.2589 µM, II: 0.02315 µM)

====

System: Bovine cardiac myofibrils
Assay: In vitro model of dose-dependent myofibril ATPase modulation (AC1.4, pyruvate kinase/lactate dehydrogenase-coupled ATPase assay at pCa25)
Assay type: biochemical
Conditions: concentration at which ATPase activity was 1.4-fold higher than the bottom of the dose curve, mean of a minimum of two independent tests
property-label: AC1.4 (µM)

Lookup: AC1.4 / Bovine cardiac myofibrils / "Nc1ccccc1C(=O)N1[C@@H](C(=O)N[C@@H](c2ccc(C(F)(F)F)cc2F)C2CC2)C[C@H]2C[C@H]21"
7.5435

Lookup: AC1.4 / Bovine cardiac myofibrils / "CS(=O)(=O)c1cccc(C(=O)N2CC[C@@H](F)[C@@H]2C(=O)N[C@@H](c2ccc(C(F)(F)F)cc2)C2CC2)c1"
7.5875

Lookup: AC1.4 / Bovine cardiac myofibrils / "CS(=O)(=O)c1cccc(C(=O)N2CCC[C@@H]2C(=O)N[C@@H](c2ccc(C(F)(F)F)c(F)c2)C2COC2)c1"
0.3231

P = O=C(NCc1ccc(C(F)(F)F)cc1F)[C@H]1CCCN1C(=O)[C@H]1CCCN(S(=O)(=O)N2CC(n3ccnn3)C2)C1
Q = N#CC1CN(S(=O)(=O)N2C[C@H]3C[C@@H]2[C@H](C(=O)N2CCC[C@@H]2C(=O)NCc2ccc(C(F)(F)F)cc2F)C3)C1
Between P and Q , whose measured AC1.4 reads higher? Which one? Tell me its label.
P
